- system_under_test: hDGAT1 (Homo sapiens)
- Construct: endogenous in cells; host or cells: HEK293H cells
- Sequence (O75907 whole entry): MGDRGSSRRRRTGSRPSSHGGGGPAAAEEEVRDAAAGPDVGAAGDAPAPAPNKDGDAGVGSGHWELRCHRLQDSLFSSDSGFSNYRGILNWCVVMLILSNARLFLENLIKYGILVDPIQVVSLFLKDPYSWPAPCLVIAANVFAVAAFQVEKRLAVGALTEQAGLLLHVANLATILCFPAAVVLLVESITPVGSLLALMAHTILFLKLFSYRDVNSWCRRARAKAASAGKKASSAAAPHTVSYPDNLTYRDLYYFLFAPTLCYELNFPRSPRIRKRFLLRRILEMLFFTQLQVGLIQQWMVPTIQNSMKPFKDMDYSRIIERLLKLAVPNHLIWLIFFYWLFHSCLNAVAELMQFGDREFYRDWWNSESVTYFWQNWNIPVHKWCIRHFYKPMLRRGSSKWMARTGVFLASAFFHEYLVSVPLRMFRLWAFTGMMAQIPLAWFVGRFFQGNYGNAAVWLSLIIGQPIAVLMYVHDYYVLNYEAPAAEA
- assay_overview: Cell based hDGAT1 inhibitory activity in HEK293H cells (13C-oleic acid to triolein, LC-MS)
- conditions: HEK293-H, 1 uM
# maps each entry to its inhibition at 1 µM

O=C(Nc1ccc(N2CCC3(CC2)CC(F)C3)nc1)c1nnc(Nc2ccc(F)c(F)c2)o1    87%
Nc1ncnc2ncn(-c3ccc(N4CCC5(CC4)CC(F)C5)nc3)c(=O)c12    19%
Cn1nnnc1C1CC2(CCN(c3ccc(NC(=O)c4nnc(Nc5ccc(F)c(F)c5)o4)cn3)CC2)C1    91%
O=C1CCN(C(=O)C2CC3(CCN(c4ccc(NC(=O)c5nnc(Nc6ccc(F)c(F)c6)o5)cn4)CC3)C2)CC1    92%
O=C(Nc1ccc([C@H]2CC[C@]3(CC2)CC3C(=O)O)nc1)c1nnc(Nc2ccccc2)o1 (stereo partly shown)    49%

What does the record list as inhibition at 1 µM for `COC1CCN(C(=O)C2CC3(CCN(c4ccc(NC(=O)c5nnc(Nc6ccc(F)c(F)c6)o5)cn4)CC3)C2)CC1` ?
90%

What about O=C(Nc1ccc([C@H]2CC[C@]3(CC2)CC3C(=O)O)nc1)c1nnc(Nc2ccc(F)c(F)c2)o1 (stereo partly shown) ?
37%

What about `O=C(Nc1ccc(N2CCC3(CC2)CC(C(=O)NCC(F)(F)F)C3)nc1)c1nnc(Nc2ccc(F)c(F)c2)o1` ?
84%

What about `O=C(Nc1ccc(N2CCC3(CC2)CC(F)C3)nc1)c1nnc(Nc2ccc(OCC(F)(F)F)nc2)o1` ?
77%

What about `O=C(Nc1ccc(N2CCC3(CC2)CC(C(=O)N2CCCC2)C3)nc1)c1nnc(Nc2ccc(F)c(F)c2)o1` ?
86%

What about `O=C(Nc1ccc(N2CCC3(CC2)CC(C(=O)N2CCOCC2)C3)nc1)c1nnc(Nc2ccc(F)c(F)c2)o1` ?
84%

What about CC1(C)CN(c2ccc(C3CCC4(CCC(CC(=O)O)CC4)CC3)cc2)C(=O)c2c(N)ncnc21 (stereo not shown) ?
3%

What about CC1CCCCN1C(=O)C1CC2(CCN(c3ccc(NC(=O)c4nnc(Nc5ccc(F)c(F)c5)o4)cn3)CC2)C1 (stereo not shown) ?
88%
